This section presents binders with their documented DH values.
- TESTED_TARGET: T1, genetically modified and chemically inactivated C. difficile toxoid A (Clostridium difficile, UniProt P16154 2-2710)
- T1 construct: also called TxdA; the toxoid
- PROCEDURE_SUMMARY: ITC
MEASURED_METRIC: DH (kcal/mol)

binder="hCDIFA-56 (antibody, V domains shown) VH: QVQLVQSGAEVKKPGASVKVSCKVSGYTLPELSMHWVRQAPGKGLEWMGGFDPEDDDTIYAQKFQGRVTMTEDTSTDTAYLELSSLRSEDTAVYYCATDSSPLYNENYFGSAAFDVWGQGTTVTVSS VL: AIRMTQSPSSLSASVGDRVTITCRASQGISTYLAWYQQKPGKAPKLLLYAASRLESGVPSRFSGSGSGTDYTLTINSLQPEDFATYYCQQYDRMPRTFGQGTKVEIKR" measured_metric=DH number=-10.3
binder="hCDIFA-15 (antibody, V domains shown) VH: QVQLVQSGAEVKKPGASVKISCKASGYTFVRYYMHWVRQAPGQGLEWMGLIDPSGGSTRYAQRFQGRVTMTRDTSTSTVYMELSGLRSEDTAVYYCARDGPFGGLSGGNWFDPWGQGTLVTVSS VL: AIRMTQSPGTLSLSPGERATLSCRASQSLSFSYLAWYQQKPGQAPRLLIYGASSRATGIPDRFSGSGSGTDFALTISRLEPEDFAVYYCQQYGTSPLTFGGGTKVDIKR" measured_metric=DH number=-2.7
